system_name: T1, hIL2-DM-his (human, UniProt P60568 21-153)
T1 construct: expressed in ExpiCHO-S cells, nickel-column purified; also called hIL-2 mutein containing two point mutations K64G and N90R (with a his-tag); not shown: his-tag
assay_name: BLI ForteBio, Ab on Protein A sensor
# Lookup of reported koff keyed by entry
Report the value in s⁻¹ with no unit label.

Value lookup for koff; key = K2G2 (antibody, V domains shown) VH: QVQLVQSGAEVKKPGATVKISCKVSGDTITAYYMHWVRQAPGQGLEWIGRIDPEDDSTKYAENFKGRVTITADTSTDTAYMELSSLRSEDTAVYYCTTITFYYSRELRWFAYWGQGTLVTVSS VL: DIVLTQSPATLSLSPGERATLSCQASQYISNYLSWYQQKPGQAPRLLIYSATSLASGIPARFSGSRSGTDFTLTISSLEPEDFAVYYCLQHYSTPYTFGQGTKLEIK
0.000562

Name the reported koff value associated with the binder K3G1 (antibody, V domains shown) VH: QVQLVQSGAEVKKPGATVKISCKVSGDTITAYYMHWVRQAPGQGLEWIGRIDPEDDSTKYAENFKGRVTITADTSTDTAYMELSSLRSEDTAVYYCTTVTFYYSRELRWFAYWGQGTLVTVSS VL: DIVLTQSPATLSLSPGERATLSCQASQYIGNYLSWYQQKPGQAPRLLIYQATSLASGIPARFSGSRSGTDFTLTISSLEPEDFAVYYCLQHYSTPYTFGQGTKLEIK
0.00186

Dear colleague, I am looking for the recorded koff of the following binder: K4G2 (antibody, V domains shown) VH: QVQLVQSGAEVKKPGATVKISCKVSGDTITAYYMHWVRQAPGQGLEWIGRIDPEDDSTKYAENFKGRVTITADTSTDTAYMELSSLRSEDTAVYYCTTITFYYSRELRWFAYWGQGTLVTVSS VL: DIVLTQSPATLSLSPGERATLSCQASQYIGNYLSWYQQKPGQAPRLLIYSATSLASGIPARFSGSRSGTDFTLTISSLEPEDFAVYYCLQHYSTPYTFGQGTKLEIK
0.00143
